# assayedSystem: VLA-4 (Homo sapiens, UniProt P05556+P13612)
# Sequence (P13612 34-1032): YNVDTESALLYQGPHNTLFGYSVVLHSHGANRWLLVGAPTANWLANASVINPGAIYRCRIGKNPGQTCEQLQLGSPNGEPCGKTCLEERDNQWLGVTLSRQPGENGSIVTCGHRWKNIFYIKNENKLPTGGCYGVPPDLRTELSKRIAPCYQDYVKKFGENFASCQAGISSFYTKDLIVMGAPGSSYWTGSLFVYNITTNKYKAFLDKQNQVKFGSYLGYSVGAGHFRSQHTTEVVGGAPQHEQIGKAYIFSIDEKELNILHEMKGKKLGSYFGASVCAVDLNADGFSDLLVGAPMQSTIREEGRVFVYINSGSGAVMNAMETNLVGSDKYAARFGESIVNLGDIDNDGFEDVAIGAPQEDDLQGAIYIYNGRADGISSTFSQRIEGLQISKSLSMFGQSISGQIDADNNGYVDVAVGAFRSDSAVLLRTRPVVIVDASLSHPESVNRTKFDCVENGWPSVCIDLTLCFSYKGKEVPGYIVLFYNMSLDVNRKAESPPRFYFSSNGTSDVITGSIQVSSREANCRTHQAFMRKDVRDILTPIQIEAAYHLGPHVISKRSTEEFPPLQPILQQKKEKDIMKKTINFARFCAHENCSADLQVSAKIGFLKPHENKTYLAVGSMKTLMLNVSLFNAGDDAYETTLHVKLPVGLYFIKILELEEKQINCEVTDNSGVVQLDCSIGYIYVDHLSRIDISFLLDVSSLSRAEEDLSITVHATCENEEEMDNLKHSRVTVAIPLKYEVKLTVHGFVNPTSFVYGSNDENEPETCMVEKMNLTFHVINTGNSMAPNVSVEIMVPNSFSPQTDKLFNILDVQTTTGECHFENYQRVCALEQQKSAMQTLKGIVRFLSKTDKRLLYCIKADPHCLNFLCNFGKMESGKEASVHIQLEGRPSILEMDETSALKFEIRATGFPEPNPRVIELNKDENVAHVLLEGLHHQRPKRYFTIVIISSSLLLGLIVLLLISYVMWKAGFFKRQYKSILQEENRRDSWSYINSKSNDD
# Sequence (P05556 21-798): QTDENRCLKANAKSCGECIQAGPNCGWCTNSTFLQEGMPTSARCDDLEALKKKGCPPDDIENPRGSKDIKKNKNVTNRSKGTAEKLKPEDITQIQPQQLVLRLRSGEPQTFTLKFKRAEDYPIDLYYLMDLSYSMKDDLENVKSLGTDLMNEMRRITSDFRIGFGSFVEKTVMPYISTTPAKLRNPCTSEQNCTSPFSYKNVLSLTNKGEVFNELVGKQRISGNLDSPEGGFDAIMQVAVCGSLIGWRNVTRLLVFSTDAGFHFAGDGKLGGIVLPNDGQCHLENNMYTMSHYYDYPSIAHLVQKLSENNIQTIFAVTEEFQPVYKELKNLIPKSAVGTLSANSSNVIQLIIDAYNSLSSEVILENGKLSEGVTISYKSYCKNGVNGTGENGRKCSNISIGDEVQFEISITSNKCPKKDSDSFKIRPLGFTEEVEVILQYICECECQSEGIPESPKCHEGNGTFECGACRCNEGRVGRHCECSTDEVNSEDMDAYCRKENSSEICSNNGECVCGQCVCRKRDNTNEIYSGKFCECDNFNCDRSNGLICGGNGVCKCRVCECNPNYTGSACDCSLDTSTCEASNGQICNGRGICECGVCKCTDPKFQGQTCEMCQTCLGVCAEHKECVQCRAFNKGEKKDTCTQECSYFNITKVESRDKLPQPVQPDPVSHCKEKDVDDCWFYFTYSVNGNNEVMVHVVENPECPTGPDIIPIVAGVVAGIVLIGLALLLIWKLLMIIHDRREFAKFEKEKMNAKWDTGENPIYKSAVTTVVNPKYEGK
# runDescription: cell-based
# Assay type: cell-based
# Parameters: host or cells: Jurkat (human T lymphoblastic line)
Square brackets hold non-standard residues; d marks the D form. Peptide text beside a SMILES is read from it. * marks the point of attachment. Cbz = O=C(OCc1ccccc1)*
Classify by measured RELATIVE POTENCY (relative peptide inhibition of VLA-4 binding CS-1): y if it is equal to or exceeds 2, n if it is smaller.

The following molecules have reported results that may help.
molecule=CC(C)C[C@H](NC(=O)c1ccncc1)C(=O)N[C@@H](CC(=O)O)C(=O)N[C@@H](Cc1ccc(O)cc1)C(=O)N1CCCCC1 assayedsystem="VLA-4 (Homo sapiens, UniProt P05556+P13612)" discretelabel=y
molecule="CC(C)C[C@H](NC(=O)c1ccc2ccccc2c1)C(=O)N[C@@H](CC(=O)O)C(=O)N[C@H](C(=O)N1CCC[C@@H]1C(N)=O)C(C)C [X L D V p 2-naphthoyl amide]" assayedsystem="VLA-4 (Homo sapiens, UniProt P05556+P13612)" discretelabel=n
molecule="CC(C)C[C@H](NC(=O)C12CC3CC(CC(C3)C1)C2)C(=O)N[C@@H](CC(=O)O)C(=O)N[C@H](C(=O)N1CCC[C@@H]1C(N)=O)C(C)C [X L D V p adamantanecarbonyl amide]" assayedsystem="VLA-4 (Homo sapiens, UniProt P05556+P13612)" discretelabel=n

Incoming: Decide: RELATIVE POTENCY (relative peptide inhibition of VLA-4 binding CS-1) of CC(C)C[C@H](NC(=O)OCc1ccccc1)C(=O)N[C@@H](CC(=O)O)C(=O)N[C@@H](Cc1ccccc1)C(=O)N1CCC[C@@H]1C(N)=O [X L D F p benzyloxycarbonyl amide] (Cbz-LDF[dP]-NH2) >= 2?
Outgoing: y

Incoming: Decide: RELATIVE POTENCY (relative peptide inhibition of VLA-4 binding CS-1) of CC(C)COC(=O)N[C@@H](CC(=O)O)C(=O)N[C@@H](Cc1ccccc1)C(=O)N1CCCCC1 >= 2?
Outgoing: n
